Where these numbers come from: patent US20240270821A1

- assay-system: hGIPR (Homo sapiens, UniProt P48546)
- Sequence (P48546 22-466): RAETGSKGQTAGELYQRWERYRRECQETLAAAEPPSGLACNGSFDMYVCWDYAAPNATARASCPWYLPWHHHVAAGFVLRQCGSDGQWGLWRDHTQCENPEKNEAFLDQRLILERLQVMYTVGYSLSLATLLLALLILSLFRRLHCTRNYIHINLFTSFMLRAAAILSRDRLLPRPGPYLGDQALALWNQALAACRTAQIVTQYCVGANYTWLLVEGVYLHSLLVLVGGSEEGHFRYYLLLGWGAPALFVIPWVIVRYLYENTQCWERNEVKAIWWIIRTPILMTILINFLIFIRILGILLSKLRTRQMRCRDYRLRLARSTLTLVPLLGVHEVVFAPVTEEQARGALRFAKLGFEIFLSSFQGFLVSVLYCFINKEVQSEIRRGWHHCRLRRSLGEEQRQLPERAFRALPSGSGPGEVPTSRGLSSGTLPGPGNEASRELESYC
- procedure-details: Functional cAMP activation in the presence of 0.1% casein (no HSA);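 further: intracellular cAMP rise after 30 min at 37 °C read by HTRF against a standard curve, scaled between buffer alone (0%) and top control ligand concentration (100%), four-parameter fit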
- Type: cell-based
- measurement-parameters: in the presence of 0.1% casein (no HSA); geometric mean; read-out: Relative cAMP EC50, hGIPR
Starred links: 1 amine or outer side, 2 acyl side, 3 side chain; linkers in the order of their positions; H or OH if unused. Non-standard residues stand in square brackets, D forms with d. Groups on a side chain read outwards from the residue. *: point of attachment. C20 diacid = O=C(O)CCCCCCCCCCCCCCCCCCC(=O)*; C18 diacid = O=C(O)CCCCCCCCCCCCCCCCC(=O)*; γGlu = O=C(O)[C@H](CCC(=O)[*:2])N[*:1]; αMe4Pal = C[C@](N)(Cc1ccncc1)C(=O)O; αMeY = C[C@](N)(Cc1ccc(O)cc1)C(=O)O; 4Pal = N[C@@H](Cc1ccncc1)C(=O)O; αMeL = CC(C)C[C@](C)(N)C(=O)O; Orn = NCCC[C@H](N)C(=O)O; AEEA = NCCOCCOCC(=O)O; Aib = CC(C)(N)C(=O)O
Provide the recorded EC50 for the entries that follow.
One number for each entry, in nM.

Answered cases to consult:
substance	EC50 / nM
H-Y[Aib]QGTFTSD[4Pal]SQ[αMeL]LD[Orn]K([γGlu-γGlu-C18 diacid])AQ[αMe4Pal]AFIE[αMeY]LIEGGPSSGEPPPSGSEE-NH2 [Example 1027]	0.208
H-Y[Aib]QGTFTSDYSK[αMeL]LDKK([AEEA-γGlu-C20 diacid])AQQAFVQWLIE[dA]GPSSGEPPPSEG-NH2 [Example 342]	0.347

The reported EC50 of the substance H-Y[Aib]QGTFTSD[4Pal]S[Orn][αMeL]LDKK([AEEA-γGlu-C18 diacid])AQ[Aib]AFIE[αMeY]LIEGGPSSGAPPPSGS-NH2 [Example 836] was 0.294

* * *

- assay-system: hGIPR (Homo sapiens, UniProt P48546)
- procedure-details: Functional cAMP activity in the presence of 1% HSA
- Type: cell-based
- measurement-parameters: read-out: cAMP Rel EC50, hGIPR
pEC50: −log10 of the molar value. Starred links: 1 amine or outer side, 2 acyl side, 3 side chain; linkers in the order of their positions; H or OH if unused. Non-standard residues stand in square brackets, D forms with d. Groups on a side chain read outwards from the residue. No end group written: not given here. *: point of attachment. C20 diacid = O=C(O)CCCCCCCCCCCCCCCCCCC(=O)*; C18 diacid = O=C(O)CCCCCCCCCCCCCCCCC(=O)*; αMePhe(2-F) = C[C@](N)(Cc1ccccc1F)C(=O)O; γGlu = O=C(O)[C@H](CCC(=O)[*:2])N[*:1]; αMe4Pal = C[C@](N)(Cc1ccncc1)C(=O)O; αMeY = C[C@](N)(Cc1ccc(O)cc1)C(=O)O; 4Pal = N[C@@H](Cc1ccncc1)C(=O)O; αMeL = CC(C)C[C@](C)(N)C(=O)O; αMeS = C[C@](N)(CO)C(=O)O; Orn = NCCC[C@H](N)C(=O)O; AEEA = NCCOCCOCC(=O)O; Aib = CC(C)(N)C(=O)O
Label yes (1) when pEC50 >= 8; otherwise no (0).

substance	label
H-Y[Aib]QGTFTSDFS[Orn][αMeL]LDKK([AEEA-AEEA-γGlu-C18 diacid])AQ[Aib]AFIEYLLE[Aib]GPSSGAPPPSGT-NH2 [Example 165]	no (0)
Y[Aib]QGT[αMePhe(2-F)]TSD[4Pal][αMeS]I[αMeL]LD[Orn]K([AEEA-γGlu-C18 diacid])AQ[αMe4Pal]EFI[dE][αMeY]LIEGGPPS[Aib][Orn]PPP[Orn]SE-NH2 [Example 1196]	yes (1)
H-Y[Aib]QGT[αMePhe(2-F)]TSD[4Pal]SI[αMeL]LD[Orn]K([γGlu-γGlu-C18 diacid])AQ[αMe4Pal]EFI[dE][αMeY]LQEGGPSSGAPPPSGS-NH2 [Example 647]	yes (1)

[ask] Could you please find out whether H-Y[Aib]QGTFTSDYSI[αMeL]LDKK([AEEA-AEEA-γGlu-C20 diacid])AA[Aib]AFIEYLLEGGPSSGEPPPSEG-NH2 [Example 294] has pEC50 that meets 8 or exceeds it?
[reply] no (0)
